Each recorded value in this set is attributed to patent US6355785.

- target-or-test-system: HIV-1 integrase wild-type (IN1-288) (Human immunodeficiency virus 1, UniProt P12497 P12497:1148-1435)
- method: inhibition
readout-type: IC50 (µM)
Answer in µM, number only, no unit symbol.

binder	IC50 (µM)
GTGGTGGGTGGGGTGGT (structured_DNA, pPT (PS at first and last linkages)) [T30698]	0.016
GUGGUGGGUGGGUGGGU (ssRNA, pPT (PS at first and last linkages), RNA sugars) [T30661]	0.084
GTGGTTGGTGTGGTTGGT (structured_DNA, pPT (PS at first and last linkages)) [T30674]	0.61

# input Return IC50 for the following binder: GTGGTGGGTGGGTTGGT (structured_DNA, pPT (PS at first and last linkages)) [T30678]
# output 0.12

# input Return IC50 for the following binder: GTGGGTGGTGGGTGGGT (structured_DNA, pPT (PS at first and last linkages)) [T30696]
# output 0.013

# input Return IC50 for the following binder: GTGGTGGGTGGGTGGGT (structured_DNA, pPT; N5,N9,N13 = 5-bromo dU [n positions 5,9,13 = modified dU]) [T30571]
# output 0.05

# input Return IC50 for the following binder: GTGGTGGGTGGGTGGGT (structured_DNA, pPT; N13 = C-5 propynyl dU [n positions 13 = modified dU]) [T30701]
# output 0.03
